Value source: the supplement of paper PMC12783771

B1: library; numbered along this chain (parent)
chain: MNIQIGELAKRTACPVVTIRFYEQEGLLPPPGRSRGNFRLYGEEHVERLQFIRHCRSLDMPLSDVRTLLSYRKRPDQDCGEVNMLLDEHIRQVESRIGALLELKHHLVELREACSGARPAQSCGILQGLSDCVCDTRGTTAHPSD

variants of: B1; experiment: sfGFP reporter fluorescence (15 h) (µM FITC); higher = stronger transcriptional activation; conditions: library round: Round 0; ligand: 30 µM Zn
Label scheme for sfGFP reporter fluorescence: lower than 0.2 is rule not met, 0.2 and above is rule met.

Below, 2 variants whose answers are already recorded.
var=I3S answer_label="rule met"
var=L85C answer_label="rule not met"

q: Identify whether the reported sfGFP reporter fluorescence of the following variant is 0.2 or greater: "D64C"
a: rule met

q: Identify whether the reported sfGFP reporter fluorescence of the following variant is 0.2 or greater: "G128T"
a: rule met

q: Identify whether the reported sfGFP reporter fluorescence of the following variant is 0.2 or greater: "I52A"
a: rule not met
